The measured values listed here are drawn from ChEMBL document CHEMBL4339220.

Overview of recorded selectivity ratio for various molecules
- ASSAY_OVERVIEW: Selectivity index, ratio of CC50 for African green monkey Vero E6 cells to EC50 for Zika virus MR766 infected in African green monkey Vero E6 cells
- Assay type: toxicity, Vero C1008
- CONDITION_SET: read-out: Ratio CC50/EC50
ASSAY_METRIC: selectivity ratio

MOLECULE: CCCCCOCc1c(Nc2cccc(O)c2)nc(N2CCOCC2)nc1C(=O)NCc1ccccc1
ASSAY_METRIC: selectivity ratio
EXPERIMENTAL_RESULT: > 1.7
//
MOLECULE: CCCCCOCc1c(Nc2cccc(O)c2)nc(N2CCOCC2)nc1C(=O)NCc1ccc(C(F)(F)F)cc1
ASSAY_METRIC: selectivity ratio
EXPERIMENTAL_RESULT: 3.5
//
MOLECULE: C[C@@]1(O)[C@H](O)[C@@H](CO)O[C@H]1n1ccc2c(N)ncnc21 [BETA-2'-C-METHYL-7-DEAZA-ADENOSINE]
ASSAY_METRIC: selectivity ratio
EXPERIMENTAL_RESULT: > 64
//
MOLECULE: CCCCCOCc1c(Nc2ccc(S(N)(=O)=O)cc2)nc(N2CCOCC2)nc1C(=O)NCCOc1ccccc1
ASSAY_METRIC: selectivity ratio
EXPERIMENTAL_RESULT: > 41
//
MOLECULE: Oc1cccc(Nc2nc(NCCOc3ccccc3)nc3[nH]cnc23)c1
ASSAY_METRIC: selectivity ratio
EXPERIMENTAL_RESULT: > 7.4
